- Study target: UniProt:Q04400
- Sequence (Q04400 whole entry): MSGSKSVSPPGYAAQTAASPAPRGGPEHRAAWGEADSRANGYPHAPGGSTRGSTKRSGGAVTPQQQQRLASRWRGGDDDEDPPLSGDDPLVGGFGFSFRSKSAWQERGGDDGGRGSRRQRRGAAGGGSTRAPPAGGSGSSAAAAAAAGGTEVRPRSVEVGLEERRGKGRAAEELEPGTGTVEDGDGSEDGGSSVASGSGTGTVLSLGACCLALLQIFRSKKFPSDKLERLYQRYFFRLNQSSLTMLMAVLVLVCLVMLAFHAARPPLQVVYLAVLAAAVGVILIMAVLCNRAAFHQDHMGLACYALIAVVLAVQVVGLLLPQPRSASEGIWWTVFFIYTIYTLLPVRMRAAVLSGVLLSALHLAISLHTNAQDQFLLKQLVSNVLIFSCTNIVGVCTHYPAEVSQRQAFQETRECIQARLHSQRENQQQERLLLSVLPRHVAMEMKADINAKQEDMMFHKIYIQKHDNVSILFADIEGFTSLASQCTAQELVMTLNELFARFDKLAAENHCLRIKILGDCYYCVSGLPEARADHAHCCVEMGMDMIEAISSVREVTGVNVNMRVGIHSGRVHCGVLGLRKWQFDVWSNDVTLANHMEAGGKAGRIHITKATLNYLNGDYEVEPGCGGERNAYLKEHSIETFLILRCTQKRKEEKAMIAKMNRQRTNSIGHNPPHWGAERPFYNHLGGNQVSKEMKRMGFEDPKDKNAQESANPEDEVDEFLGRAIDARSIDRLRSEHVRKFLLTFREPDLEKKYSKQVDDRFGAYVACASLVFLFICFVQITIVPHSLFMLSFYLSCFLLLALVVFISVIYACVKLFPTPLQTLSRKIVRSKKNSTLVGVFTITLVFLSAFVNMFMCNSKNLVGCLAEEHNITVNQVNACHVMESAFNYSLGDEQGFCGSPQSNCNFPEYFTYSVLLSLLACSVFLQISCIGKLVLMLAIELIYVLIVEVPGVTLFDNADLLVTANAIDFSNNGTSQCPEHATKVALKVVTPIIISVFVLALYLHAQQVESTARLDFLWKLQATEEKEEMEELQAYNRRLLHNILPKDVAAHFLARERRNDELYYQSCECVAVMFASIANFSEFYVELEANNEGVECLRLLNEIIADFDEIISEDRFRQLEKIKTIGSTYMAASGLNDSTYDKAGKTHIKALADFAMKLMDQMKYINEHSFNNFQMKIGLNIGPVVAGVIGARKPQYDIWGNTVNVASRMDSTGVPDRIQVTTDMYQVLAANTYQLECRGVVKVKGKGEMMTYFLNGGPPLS
Measurement kind: IC50 (µM)

[
  {
    "Compound": "Nc1ncnc2c1ncn2[C@@H]1O[C@H](CO)[C@@H](O)[C@@H]1O",
    "Uom": "µM",
    "Obs value": 82
  },
  {
    "Compound": "Nc1nc(F)nc2c1ncn2[C@H]1C[C@H](O)[C@@H](CO)O1 (stereo in doubt; form 1)",
    "Uom": "µM",
    "Obs value": 4.6
  },
  {
    "Compound": "C[C@@H]1O[C@H](n2cnc3c(N)ncnc32)C[C@H]1O",
    "Uom": "µM",
    "Obs value": 2.8
  }
]

1: Nc1ncnc2c1ncn2[C@H]1C[C@H](O)[C@@H](CO)O1
2: Nc1nc(F)nc2c1ncn2[C@H]1C[C@H](O)[C@@H](CF)O1 (stereo in doubt; form 1)
Input: Compare 1 and 2 by numeric IC50 and name the larger one. Write the label of whichever entry you select.
Output: 2
